Each record here notes measured recombinant barcode read abundance (log10).
Test: recombinant barcode read abundance after kanamycin selection (control-corrected) (log10(CPM+1)); higher = more efficient recombination; sequences stand for … in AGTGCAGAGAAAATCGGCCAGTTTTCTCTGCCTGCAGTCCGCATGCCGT…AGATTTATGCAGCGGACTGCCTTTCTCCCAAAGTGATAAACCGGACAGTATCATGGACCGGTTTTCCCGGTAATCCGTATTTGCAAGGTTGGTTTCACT; site = the 11-nt target;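 note: IS621 recombinase and bridge RNA in Escherichia coli cells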
Reply with the value as a number alone.

MONOMER_SEQUENCE: GACGGATCTTGGGTTCTAACCTGTTGCTT (site GACGGATCTAC)
EXPERIMENTAL_VALUE: 0.162

MONOMER_SEQUENCE: GTATGTACTTGGGTTCTAACCTGTTGCAT (site GTATGATCTAT)
EXPERIMENTAL_VALUE: 0.206

MONOMER_SEQUENCE: AAGTCGTCTTGGGTTCTAACCTGTTGCCT (site AGGTCGTCTAG)
EXPERIMENTAL_VALUE: 0.126

MONOMER_SEQUENCE: AGGGATACTTGGGTTCTAACCTGTTGCGT (site AGGGATACTAC)
EXPERIMENTAL_VALUE: 3.32

MONOMER_SEQUENCE: GGCTAGCCTTGGGTTCTAACCTGTTGCCT (site GGCTAGCCTAG)
EXPERIMENTAL_VALUE: 0.423

Incoming: # input sequence: TAAGACCCTTGGGTTCTAACCTGTTGCCT (site TCAGACCCTAG) ; wanted: its recombinant barcode read abundance (log10)
Outgoing: 0.454

Incoming: Another sequence to look at: CCTGGGACTTGGGTTCTAACCTGTTGCGG (site CCTGGGACTCC)
Outgoing: 2.29
